Recorded measurements of inhibition, one per entry
# ASSAYED_TARGET: Cyclic GMP-AMP synthase (Mus musculus) (UniProt Q8C6L5)
# Sequence (Q8C6L5 whole entry, looked up): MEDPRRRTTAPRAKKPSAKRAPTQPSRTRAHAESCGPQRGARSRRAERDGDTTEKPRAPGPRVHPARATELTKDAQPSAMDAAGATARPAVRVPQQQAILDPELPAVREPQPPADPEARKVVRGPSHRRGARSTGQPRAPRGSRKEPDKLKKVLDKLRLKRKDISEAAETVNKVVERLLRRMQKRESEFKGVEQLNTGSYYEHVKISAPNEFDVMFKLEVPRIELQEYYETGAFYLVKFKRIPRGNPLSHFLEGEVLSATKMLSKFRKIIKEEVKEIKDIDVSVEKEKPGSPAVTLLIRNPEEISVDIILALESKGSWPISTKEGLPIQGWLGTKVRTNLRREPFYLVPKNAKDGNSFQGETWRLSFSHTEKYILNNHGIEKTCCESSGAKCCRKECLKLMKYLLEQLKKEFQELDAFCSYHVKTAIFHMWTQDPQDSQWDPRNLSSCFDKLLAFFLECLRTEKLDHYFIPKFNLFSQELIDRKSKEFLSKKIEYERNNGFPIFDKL
# PROCEDURE_DETAILS: inhibitors of Mus musculus cyclic GMP-AMP synthase, initial high-throughput assay, cell-free, RapidFire MS (AID 1259397);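 also: enzyme stimulated by 45 bp dsDNA with ATP and GTP substrates; cGAMP share of summed cGAMP plus half ATP and half GTP signals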
# MEASUREMENT_PARAMETERS: recombinant mouse cGAS, cGAMP by RapidFire MS; at 12.5 µM; hits give high values
The campaign covered roughly 130,000 compounds. About 230 (0.18%) were called active. This is one part of a sample in which actives are shown more often than they occur.
# unit: % | format: bare number

MOLECULE	ASSAYED_TARGET	UNIT_LABEL	ASSAY_RESULT
CC(Nc1ncnc2sc3c(c12)CCCC3)c1ccccc1 (centres undefined)	Cyclic GMP-AMP synthase (Mus musculus) (UniProt Q8C6L5)	%	-2.34
O=C(NCC1(c2ccc(F)cc2)CCCC1)C1CCN(C(=O)C2CC2)CC1	Cyclic GMP-AMP synthase (Mus musculus) (UniProt Q8C6L5)	%	0.199
O=C(Cn1ccc(=O)c2ccccc21)Nc1cc(Cl)ccc1C(=O)N1CCCC1	Cyclic GMP-AMP synthase (Mus musculus) (UniProt Q8C6L5)	%	-4.35
CCOc1ccc(Cl)cc1S(=O)(=O)N1CCN(CCO)CC1	Cyclic GMP-AMP synthase (Mus musculus) (UniProt Q8C6L5)	%	-1.81
O=S(=O)(c1ccc2c(c1)OCCCO2)N1CCCC(c2nc3ccccc3s2)C1 (centres undefined)	Cyclic GMP-AMP synthase (Mus musculus) (UniProt Q8C6L5)	%	10

GET /value?item= CCc1ccc(Cl)c(CC)c1NC(=O)c1cnccn1 &field=inhibition returns -4.79
